Hey, just so you know, these numbers are from ChEMBL document CHEMBL3297733.

test-target: Mitogen-activated protein kinase 14 (Homo sapiens, UniProt Q16539)
Sequence (Q16539 whole entry): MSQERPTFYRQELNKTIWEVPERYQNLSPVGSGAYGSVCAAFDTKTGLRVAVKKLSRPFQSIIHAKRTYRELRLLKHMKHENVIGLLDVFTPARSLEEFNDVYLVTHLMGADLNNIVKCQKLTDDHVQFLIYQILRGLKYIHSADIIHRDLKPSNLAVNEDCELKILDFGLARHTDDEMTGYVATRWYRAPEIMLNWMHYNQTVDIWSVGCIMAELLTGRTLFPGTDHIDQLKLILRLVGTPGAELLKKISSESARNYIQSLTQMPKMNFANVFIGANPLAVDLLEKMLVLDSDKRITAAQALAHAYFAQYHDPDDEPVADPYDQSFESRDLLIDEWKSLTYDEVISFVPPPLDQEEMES
method: Inhibition of P38alpha (unknown origin)
pIC50: −log10 of the molar value.
reported-metric: pIC50

Return reported pIC50; argument: CN1CCN(C[C@@H](NC(=O)C[C@H]2CNC(=O)c3cc(-c4cccc(Cl)c4)cn32)C2CCCCC2)CC1
< 5.00

----------
method: Volume of distribution at steady state in BALB/c mouse at 8.2 mg/kg, iv
Format: ADME, organism-based
Set-up: dose 8.2 mg/kg, route intravenous
experimental-parameters: in vivo, read-out: Vdss
reported-metric: Vd (L/kg)
Write it as a number; the unit L/kg goes unstated.

So what does the record say about Vd for CN1CCN(C[C@@H](NC(=O)C[C@H]2CNC(=O)c3cc(-c4cccc(Cl)c4)cn32)C2CCCCC2)CC1 ?
11.3

----------
method: Apparent permeability by PAMPA
Format: physicochemical
reported-metric: Papp (×10⁻⁶ cm/s)
Answer format: numeric, ×10⁻⁶ cm/s implied, no suffix.

For the compound CC(C)(C)CNC(=O)CC1CNC(=O)c2cc(-c3ccsc3)cn21 (racemic) , what Papp is on record?
48

----------
method: Plasma protein binding in rat
Assay type: ADME, cell-free
experimental-parameters: read-out: PPB (converted)
reported-metric: fraction unbound
Kindly provide the number alone.

If you can, please state the reported fraction unbound value of CN1CCN(C[C@@H](NC(=O)C[C@H]2CNC(=O)c3cc(-c4cccc(Cl)c4)cn32)C2CCCCC2)CC1 .
0.036

----------
test-target: hERG (KCNH2) (Homo sapiens)
Sequence (Q12809 whole entry): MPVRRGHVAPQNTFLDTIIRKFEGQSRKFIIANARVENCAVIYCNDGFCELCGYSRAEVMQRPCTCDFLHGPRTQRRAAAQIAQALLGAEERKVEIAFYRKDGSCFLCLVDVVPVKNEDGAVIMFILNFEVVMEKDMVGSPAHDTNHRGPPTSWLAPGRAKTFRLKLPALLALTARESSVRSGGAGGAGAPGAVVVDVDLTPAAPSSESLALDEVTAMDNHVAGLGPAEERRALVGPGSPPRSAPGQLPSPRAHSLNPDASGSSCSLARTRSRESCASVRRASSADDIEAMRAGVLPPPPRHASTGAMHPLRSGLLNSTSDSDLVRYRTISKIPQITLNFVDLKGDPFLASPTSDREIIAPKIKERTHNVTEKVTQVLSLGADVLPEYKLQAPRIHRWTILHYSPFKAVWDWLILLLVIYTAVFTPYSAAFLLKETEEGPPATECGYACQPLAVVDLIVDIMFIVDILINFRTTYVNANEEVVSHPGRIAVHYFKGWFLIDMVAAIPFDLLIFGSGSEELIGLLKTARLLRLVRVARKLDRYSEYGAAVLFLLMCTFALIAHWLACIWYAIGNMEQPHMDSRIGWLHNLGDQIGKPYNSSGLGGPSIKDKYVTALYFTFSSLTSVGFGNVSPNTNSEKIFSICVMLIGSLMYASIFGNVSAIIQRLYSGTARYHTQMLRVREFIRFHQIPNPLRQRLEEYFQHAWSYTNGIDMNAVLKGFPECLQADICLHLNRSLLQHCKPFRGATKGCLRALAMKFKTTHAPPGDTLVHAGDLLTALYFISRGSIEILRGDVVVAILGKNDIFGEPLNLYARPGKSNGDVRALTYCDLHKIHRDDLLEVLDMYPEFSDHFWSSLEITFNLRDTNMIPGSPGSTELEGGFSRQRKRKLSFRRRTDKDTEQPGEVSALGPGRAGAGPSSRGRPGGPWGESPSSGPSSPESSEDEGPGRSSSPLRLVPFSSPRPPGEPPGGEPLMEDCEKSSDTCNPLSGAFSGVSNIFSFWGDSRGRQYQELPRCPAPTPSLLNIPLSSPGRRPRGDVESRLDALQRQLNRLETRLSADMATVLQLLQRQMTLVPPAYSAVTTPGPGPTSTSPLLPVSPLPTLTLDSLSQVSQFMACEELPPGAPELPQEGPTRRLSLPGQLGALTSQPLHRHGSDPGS
method: Inhibition of human ERG channel at 10 uM
reported-metric: inhibition at 10 µM (%)
// units = %; emit number, no label

Any idea what inhibition at 10 µM came out for CN1CCN(C[C@@H](NC(=O)C[C@H]2CNC(=O)c3cc(-c4cccc(Cl)c4)cn32)C2CCCCC2)CC1 on hERG (KCNH2) (Homo sapiens)?
16

----------
method: Oral bioavailability in BALB/c mouse at 8.2 mg/kg
Assay type: ADME, organism-based
experimental-parameters: in vivo
reported-metric: bioavailability (%)
Report only the number, with the unit % understood.

// returns reported bioavailability for input CN1CCN(C[C@@H](NC(=O)C[C@H]2CNC(=O)c3cc(-c4cccc(Cl)c4)cn32)C2CCCCC2)CC1
0.65

----------
test-target: Platelet-derived growth factor receptor (Homo sapiens, UniProt P09619+P16234)
method: Inhibition of PDGFR (unknown origin)
reported-metric: IC50

Would you kindly share the measured IC50 for CN1CCN(C[C@@H](NC(=O)C[C@H]2CNC(=O)c3cc(-c4cccc(Cl)c4)cn32)C2CCCCC2)CC1 ?
> 10 µM

Continuing:
IC50 for CC(C)(C)CNC(=O)CC1CNC(=O)c2cc(-c3ccsc3)cn21 (racemic) ?
> 10 µM

----------
test-target: Fibroblast growth factor receptor 1 (Homo sapiens, UniProt P11362)
Sequence (P11362 whole entry): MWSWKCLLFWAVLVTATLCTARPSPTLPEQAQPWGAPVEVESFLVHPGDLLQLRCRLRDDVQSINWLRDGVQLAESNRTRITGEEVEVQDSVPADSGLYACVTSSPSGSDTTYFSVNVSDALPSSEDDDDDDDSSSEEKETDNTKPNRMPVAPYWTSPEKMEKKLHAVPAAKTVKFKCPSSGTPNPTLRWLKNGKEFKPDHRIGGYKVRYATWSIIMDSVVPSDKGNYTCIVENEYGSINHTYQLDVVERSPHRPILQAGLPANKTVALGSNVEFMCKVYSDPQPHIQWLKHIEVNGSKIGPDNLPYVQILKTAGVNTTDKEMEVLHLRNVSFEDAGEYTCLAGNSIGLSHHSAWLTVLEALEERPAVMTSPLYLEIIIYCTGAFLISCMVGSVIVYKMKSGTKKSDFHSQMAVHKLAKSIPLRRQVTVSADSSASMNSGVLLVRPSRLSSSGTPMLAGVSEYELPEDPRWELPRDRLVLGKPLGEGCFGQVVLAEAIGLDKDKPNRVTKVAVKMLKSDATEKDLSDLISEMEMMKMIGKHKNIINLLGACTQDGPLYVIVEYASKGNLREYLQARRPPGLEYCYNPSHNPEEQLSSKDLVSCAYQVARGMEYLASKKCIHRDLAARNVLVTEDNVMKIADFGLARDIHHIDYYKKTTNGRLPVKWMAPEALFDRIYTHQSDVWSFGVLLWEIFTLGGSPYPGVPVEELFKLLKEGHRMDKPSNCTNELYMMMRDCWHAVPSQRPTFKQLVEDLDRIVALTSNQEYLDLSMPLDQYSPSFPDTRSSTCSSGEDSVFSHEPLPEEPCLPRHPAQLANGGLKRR
reported-metric: IC50

// lookup IC50 | system=Fibroblast growth factor receptor 1 (Homo sapiens, UniProt P11362) | key= CN1CCN(C[C@@H](NC(=O)C[C@H]2CNC(=O)c3cc(-c4cccc(Cl)c4)cn32)C2CCCCC2)CC1
> 10 µM

----------
method: Cytotoxicity against mouse BA/F3 cells overexpressing PIM1 after 72 hrs by CellTitre-Glo assay
Assay type: functional, cell-based
experimental-parameters: BaF3, 72 h
reported-metric: IC50 (nM)
Give just the numeric value; nM need not be written.

Reference set, count: 5
Need IC50 of CN1CCN(C[C@@H](NC(=O)C[C@H]2CNC(=O)c3cc(-c4ccnc(F)c4)cn32)C2CCCCC2)CC1 , thanks.
2480

Record request: IC50 value, item O=C(C[C@H]1CNC(=O)c2cc(-c3cccc(F)c3)cn21)N[C@H](CO)Cc1ccccc1
3050

Tell me the measured IC50 of CN1CCN(C[C@@H](NC(=O)C[C@H]2CNC(=O)c3cc(-c4cccc(F)c4)cn32)C2CCCCC2)CC1 , please.
490

Quick one: IC50 of O=C(C[C@H]1CNC(=O)c2cc(-c3cccc(F)c3)cn21)N[C@H](CO)C1CCCCC1 ?
1530

Quick one: IC50 for CN1CCN(C[C@@H](NC(=O)C[C@H]2CNC(=O)c3cc(-c4cccc(Cl)c4)cn32)C2CCCCC2)CC1 ?
125

Further cases:
Look up IC50: CN(C)C1CCN(C[C@@H](NC(=O)C[C@H]2CNC(=O)c3cc(-c4cccc(Cl)c4)cn32)C2CCCCC2)CC1
480

Query (compound): CN1CCN(C[C@@H](NC(=O)C[C@H]2CNC(=O)c3cc(-c4cc(Cl)ccc4F)cn32)C2CCCCC2)CC1 ; field requested: IC50
147

Find the recorded IC50 belonging to O=C(CC1CNC(=O)c2cc(-c3ccccc3F)cn21)NCC1CCCCC1 (racemic) and report it.
1790

Which IC50 reading was recorded for the compound O=C(CC1CNC(=O)c2cc(-c3cccc(F)c3)cn21)NCC1CCCCC1 (racemic) ?
1110

Quick one: IC50 of O=C(C[C@H]1CNC(=O)c2cc(-c3cccc(F)c3)cn21)N[C@H](CO)c1ccccc1 ?
3720
